experiment: Clearance in rat at 0.5 mg/kg, iv or 1 mg/kg, po; assay type: ADME, organism-based; details: in vivo
reported.property: clearance

Ask | Please look at this molecule and report its clearance: COCc1ccc(-c2ccc3nnc(C(N)=O)c(N[C@@H](C)C4CCOCC4)c3c2)cn1
Reply | 21 mL/min/kg

----------
assay: Intrinsic clearance in dog hepatocytes assessed per million cells at 1 uM measured after 30 mins by HPLC analysis; type: ADME, cell-based, Canis lupus familiaris, Hepatocyte; details: read-out: CLH
Reported hepatocyte CLint at 1 µM values are given for each entry in this list.
Provide the reading as a plain figure in µL/min/1e6 cells.

- smiles.structure: "C[C@H](Nc1c(C(N)=O)nnc2ccc(-c3ccc(OCCCN(C)C)nc3)cc12)C1CCOCC1"
  reported.property: "hepatocyte CLint at 1 µM"
  value.observed: 5.1

Ask | Give the reported value of hepatocyte CLint at 1 µM for this record: CNC(=O)c1nnc2ccc(-c3ccc(OCCCN(C)C)nc3)cc2c1N[C@@H](C)C1CCOCC1
Reply | 8.8

----------
assay: Terminal half life in Beagle dog at 1 mg/kg, iv administered as bolus dose; format: ADME, organism-based, Canis lupus familiaris; settings: in vivo, read-out: beta t1/2 (converted)
reported.property: half-life (h)
Number in h, nothing else.

- smiles.structure: "C[C@H](Nc1c(C(N)=O)nnc2ccc(-c3ccc(OCCCN(C)C)nc3)cc12)C1CCOCC1"
  reported.property: "half-life"
  value.observed: 6.2

From here, focus on the item given below.
Ask | Report half-life for CNC(=O)c1nnc2ccc(-c3ccc(OCCCN(C)C)nc3)cc2c1N[C@@H](C)C1CCOCC1
Reply | 4.7

----------
assay: Volume of distribution in Beagle dog at 1 mg/kg, iv administered as bolus dose or 2 mg/kg, po; format: ADME, organism-based, Canis lupus familiaris; conditions: in vivo
Form field: Vd (one value per entry).
// note: answer is a bare numeric in L/kg

- smiles.structure: "C[C@H](Nc1c(C(N)=O)nnc2ccc(-c3ccc(OCCCN(C)C)nc3)cc12)C1CCOCC1"
  Vd (L/kg): 20

Let us move to another entry and its Vd.
Ask | Return Vd (reported value) for this compound: CNC(=O)c1nnc2ccc(-c3ccc(OCCCN(C)C)nc3)cc2c1N[C@@H](C)C1CCOCC1
Reply | 14

----------
Listed next: entries and their corresponding bioavailability.
assay: Oral bioavailability in Han Wistar rat at 2 mg/kg; type: ADME, organism-based; conditions: in vivo
All answers are understood in %, so give the number only.

- smiles.structure: "CNC(=O)c1nnc2ccc(-c3ccc(OCCCN(C)C)nc3)cc2c1N[C@@H](C)C1CCOCC1"
  bioavailability [%]: 41

Now examine the next entry.
Ask | Output measured bioavailability for this item: C[C@H](Nc1c(C(N)=O)nnc2ccc(-c3ccc(OCCCN(C)C)nc3)cc12)C1CCOCC1
Reply | 26

----------
assay: Terminal half life in Han Wistar rat at 1 mg/kg, iv administered as bolus dose; assay type: ADME, organism-based; conditions: in vivo, read-out: beta t1/2 (converted)
reported.property: half-life (h)
The reply should contain only the number, in h.

Ask | Query half-life for CNC(=O)c1nnc2ccc(-c3ccc(OCCCN(C)C)nc3)cc2c1N[C@@H](C)C1CCOCC1
Reply | 5.6

Ask | Provide only the value of recorded half-life for C[C@H](Nc1c(C(N)=O)nnc2ccc(-c3ccc(OCCCN(C)C)nc3)cc12)C1CCOCC1
Reply | 4.1

The values you see were collected from ChEMBL document CHEMBL4196159.
